All figures here come from the supplement of paper PMC7877785.

Experiment: self-splicing fitness, log relative to wild type (ln ratio); higher = more splicing; Tetrahymena group I intron in knt gene, E. coli kanamycin selection, DiMSum; sequences stand for … in CUCUCU…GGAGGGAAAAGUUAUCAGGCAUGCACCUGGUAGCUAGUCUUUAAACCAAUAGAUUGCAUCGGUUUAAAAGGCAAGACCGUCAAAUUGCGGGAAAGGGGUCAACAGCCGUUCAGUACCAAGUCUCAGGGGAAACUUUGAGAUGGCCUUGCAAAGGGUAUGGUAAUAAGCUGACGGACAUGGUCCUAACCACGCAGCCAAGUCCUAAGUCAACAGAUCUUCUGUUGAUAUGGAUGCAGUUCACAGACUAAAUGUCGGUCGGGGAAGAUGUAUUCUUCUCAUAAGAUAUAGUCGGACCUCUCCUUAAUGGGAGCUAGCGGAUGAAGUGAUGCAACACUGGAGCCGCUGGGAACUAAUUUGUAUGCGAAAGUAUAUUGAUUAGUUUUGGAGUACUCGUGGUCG;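 note: selection with 25 µg/mL kanamycin versus none on LB agar overnight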
Details: 37 °C
Readout Name: self-splicing fitness (ln)

• CCAGAGCAAUAUUACGCUCA = -1.42
• UAGUAGCAAUAUUACGAAGU = -2.07
• CAAUAGCAAUAUUACGACGU = -0.956
• UGGCAGCAAUAUUACGAUCG = 1.02
• CCCCAGCAAUAUUACGAUUC = -2.46
• CCAUAGCAAUAUUACGUAAG = -0.575
• CUACAGCAAUAUUACGGUGC = -2
• GUUGAGCAAUAUUACGCUGC = -0.666
• UCCAAGCAAUAUUACGUGUC = -2.94
• GGGCAGCAAUAUUACGAAUC = -0.491
• GGGCAGCAAUAUUACGGAAG = -1.02
• UGAGAGCAAUAUUACGGCGA = -0.434
• AAGUAGCAAUAUUACGAAAU = -0.59
• CCGGAGCAAUAUUACGUCUG = -0.402
• GGGGAGCAAUAUUACGUUGU = -1.82
• AUCAAGCAAUAUUACGAGUG = -1.28
• AAGGAGCAAUAUUACGUCGG = -2.74
• UUGCAGCAAUAUUACGAGUU = -3.36
• UGACAGCAAUAUUACGCAUU = -2.4
• AUAUAGCAAUAUUACGAUGA = -0.885
• UAGUAGCAAUAUUACGUACA = -0.269
• UGCUAGCAAUAUUACGUCAC = -2.74
• UUUUAGCAAUAUUACGGUCU = -1.35
• GGACAGCAAUAUUACGCACG = 0.295
• CCGUAGCAAUAUUACGGAAA = -2.52
• GCUUAGCAAUAUUACGUAGU = -0.156
• CCCCAGCAAUAUUACGCCUU = -2.4
• GUAAAGCAAUAUUACGUGGA = -1.38
• UUUCAGCAAUAUUACGCUCC = -1.02
• UCAUAGCAAUAUUACGUAAA = -1.99
• AUGGAGCAAUAUUACGGACG = -0.988
• CGUUAGCAAUAUUACGGACU = 0.16
• GUAGAGCAAUAUUACGGCUA = 0.641
• CAAGAGCAAUAUUACGAUGG = -0.943
• GAUAAGCAAUAUUACGCCCU = 0.292
• UGUCAGCAAUAUUACGCUCG = 0.987
• GGACAGCAAUAUUACGGGGA = -3.05
• CGCAAGCAAUAUUACGAGUA = -0.869
• ACAAAGCAAUAUUACGGUAC = -2.3
• UAUUAGCAAUAUUACGUCCG = -0.925
• UAGAAGCAAUAUUACGUUAA = -1.39
• CCGUAGCAAUAUUACGCUCU = -2.48
• CUGCAGCAAUAUUACGUUCG = -0.62
• AGUUAGCAAUAUUACGAAGU = -1.47
• GUCCAGCAAUAUUACGUUGC = -0.538
• GAUUAGCAAUAUUACGGCAA = -0.0501
• CUAUAGCAAUAUUACGGGCG = -0.342
• GUGGAGCAAUAUUACGUCUG = -1.75
• CACCAGCAAUAUUACGCCGG = -0.937
• UUCGAGCAAUAUUACGUCUA = -0.414
• CCGUAGCAAUAUUACGAUAU = -3.31
• CUACAGCAAUAUUACGGUGU = -2.49
• AGACAGCAAUAUUACGUGAU = -0.742
• ACAUAGCAAUAUUACGUCAA = -1.63
• GUUGAGCAAUAUUACGGGCC = -1.82
• UAUCAGCAAUAUUACGAUAU = -1.64
• CUUAAGCAAUAUUACGAGGC = -2.53
• GACGAGCAAUAUUACGCUGG = -2.79
• UAAUAGCAAUAUUACGCGAU = -1.86
• AUGGAGCAAUAUUACGACGG = 1.8
• CUGGAGCAAUAUUACGGUUG = -1.11
• GUAAAGCAAUAUUACGGUGC = -0.36
• AGCCAGCAAUAUUACGGUCU = -2.51
• CCCCAGCAAUAUUACGGCUG = -1.99
• UGACAGCAAUAUUACGCGAG = -2.06
• GAGUAGCAAUAUUACGAGCA = 0.532
• AACCAGCAAUAUUACGCAGC = -1.29
